# testedTarget: T1, hPD-1-his (human, UniProt Q15116 25-167)
# T1 construct: domain: IgV domain; monomer in solution; biotin-labelled where captured by streptavidin; also called biotin-hPD-1-his
# T1 sequence (Q15116 other isoform, or with tags, fused parts or gaps limits assumed): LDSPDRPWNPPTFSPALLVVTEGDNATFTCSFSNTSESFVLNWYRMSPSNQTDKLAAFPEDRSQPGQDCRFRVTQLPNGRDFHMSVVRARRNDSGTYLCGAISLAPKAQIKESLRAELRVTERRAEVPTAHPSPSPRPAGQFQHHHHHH
# assayNotes: ELISA, captured hPD-1-his
parameter: EC50

Reported EC50 for 19B6 (antibody, V domains shown) VH: QVQLVQSGAEVKKPGASVKVSCKASGYTFTGYYMHWVRQAPGQGLEWMGIINPSGGSTSYAQKFQGRVTMTRDTSTSTVYMELSSLRSEDTAVYYCAKTAGYDWLPSGLGMDVWGQGTTVTVSS VL: DIQMTQSPSSLSASVGDRVTITCRASQSINSWLAWYQQKPGKAPKLLIYYASSLQSGVPSRFSGSGSGTDFTLTISSLQPEDFATYYCQQGYSVPLSFGQGTKLEIK was > 100 nM
